Measured solubility kinetic accompanies every entry in the list below.
conditions: buffer; pH 7.4; 200.0 µM

// below: answered molecules
INSERT INTO measurements (molecule, measured_value) VALUES
  ('S=c1[nH]nc(C2CCCCC2)o1', '> 27.6 µg/mL'),
  ('COc1cc(NC(=O)N[C@@H](CCSC)C(=O)O)cc(OC)c1', '> 49.3 µg/mL'),
  ('O=C(Nc1ccon1)c1sc2cc(Cl)ccc2c1Cl', '< 0.3 µg/mL'),
  ('Cc1cc(C(=O)COC(=O)/C=C/c2cccc(F)c2)c(C)n1C', '< 0.7 µg/mL'),
  ('C/C(=N/OC(=O)C1CC1c1ccccc1)c1ccccc1 (configuration not stated)', '3.6 µg/mL'),
  ('N#C/C(=C\c1cccnc1)c1ccc([N+](=O)[O-])cc1', '13.1 µg/mL');

Then this molecule:
Q: I have this molecule here, O=C(Nc1ccc(Br)cc1)NC1CCCCCCC1 , and I need its recorded solubility kinetic.
Ans: < 0.3 µg/mL

* * *

settings: buffer; pH 7.4; 200.0 µM
RECORDED METRIC: log10 of solubility kinetic (log10 of the value in µg/mL)
On a log10 scale: recorded solubility kinetic, unit µg/mL.

// below: answered molecules
INSERT INTO assay_data (molecule, measured_value) VALUES
  ('O=C1/C(=C/c2ccncc2)CCc2ccccc21', 1.53),
  ('Cc1nc2ccc(Cl)cc2c(=O)n1-c1ccccc1Cl', 1.02),
  ('Cc1ccccc1NC(=O)Cc1nc(COC(=O)c2ccc(NC(N)=O)cc2)cs1', 1.25),
  ('Cc1nc2ccc(NS(=O)(=O)c3ccc(F)cc3)cc2s1', 1.65),
  ('O=[N+]([O-])c1ccc2c(c1)Nc1nc3ccccc3nc1N2', 0.15),
  ('CSc1ccccc1C(=O)Nc1nc2ccccc2[nH]1', 0.49),
  ('O=C1CC(Sc2cccs2)C(=O)N1c1ccccc1 (configuration not stated)', 1.62),
  ('COC(=O)c1c(C)oc(C)c1S(=O)(=O)N(C)C1CCCCC1', 1.59),
  ('NS(=O)(=O)c1ccc(Nc2c([N+](=O)[O-])cncc2[N+](=O)[O-])cc1', 1.70),
  ('C#CCN1CCN(c2cccc(C(F)(F)F)c2)CC1', 0.99);

Q: I have this molecule here, O=C(Cc1ccccc1)NCC(=O)OCc1ccccc1F , and I need its recorded log10 of solubility kinetic.
Ans: 1.24

Q: I have this molecule here, COc1ccccc1OCc1ccc(C(=O)NC2CCCCC2)o1 , and I need its recorded log10 of solubility kinetic.
Ans: 1.60

Q: I have this molecule here, C/C(=N\OC(=O)Nc1ccccc1)c1ccc(C)cc1 , and I need its recorded log10 of solubility kinetic.
Ans: 1.18

Q: I have this molecule here, COc1ccc(C(=O)N2CCN(CC(=O)N3CCOCC3)CC2)cc1 , and I need its recorded log10 of solubility kinetic.
Ans: 1.61

Q: I have this molecule here, COc1ccc(NC(=O)c2ccc3c(c2)C(=O)N(Cc2ccncc2)C3=O)cc1S(N)(=O)=O , and I need its recorded log10 of solubility kinetic.
Ans: 0.53

Q: I have this molecule here, CC(C)OC(=O)c1cc2c(=O)[nH]c(C(Cl)(Cl)Cl)nc2o1 , and I need its recorded log10 of solubility kinetic.
Ans: 1.68

* * *

details: buffer; pH 7.4; 200.0 µM
solubility kinetic of 6 µg/mL or higher: TRUE. Under 6 µg/mL: FALSE.

INSERT INTO results (compound, class_label) VALUES
  ('O=C(NCCC(=O)N1CCCCC1)c1ccc(Br)cc1', 'TRUE'),
  ('COc1cccc2[nH]c(C(=O)NCCc3ccccc3)cc12', 'FALSE'),
  ('CCc1noc(C)c1C(=O)Nc1ccc(F)c(F)c1', 'TRUE'),
  ('Cc1ccc(C(=O)N(C)Cc2nc3ccccc3c(=O)[nH]2)cc1NC(=O)c1ccco1', 'TRUE'),
  ('CCC(=O)c1ccc(OCC(=O)NCCc2ccccn2)cc1', 'TRUE'),
  ('COc1ccc(/C=C/C(=O)Nc2cc(S(=O)(=O)N3CCOCC3)ccc2OC)cc1', 'TRUE'),
  ('CCn1c(C(O)c2cc(OC)c(OC)c(OC)c2)nc2ccccc21 (centres undefined)', 'TRUE'),
  ('Cc1ccc(N(CCC#N)C(=O)COC(=O)c2ccccn2)cc1', 'TRUE'),
  ('O=C(NCCc1ccc(Cl)cc1)c1ccc2nccnc2c1', 'FALSE'),
  ('Cn1c(=O)c2c(ncn2CCC(=O)N/N=C/c2cccnc2)n(C)c1=O', 'TRUE');

Q: Say whether Cn1c(SCC(=O)Nc2sccc2C(N)=O)nc2ccccc2c1=O shows solubility kinetic of 6 µg/mL or more.
Ans: FALSE

Q: Say whether CN(C)c1ncnc(N(C)C)c1[N+](=O)[O-] shows solubility kinetic of 6 µg/mL or more.
Ans: TRUE

Q: Say whether O=C(N1CCN(CCO)CC1)N1c2ccccc2CCc2ccccc21 shows solubility kinetic of 6 µg/mL or more.
Ans: TRUE

Q: Say whether CC1(C)CC(=O)C2=C(C1)Nc1ccccc1S2 shows solubility kinetic of 6 µg/mL or more.
Ans: FALSE

* * *

settings: buffer; pH 7.4; 200.0 µM
Measured solubility kinetic accompanies every entry in the list below.
Give the value in µg/mL but do not write µg/mL after it.

// below: answered compounds
INSERT INTO measurements (compound, measured_value) VALUES
  ('Cc1cc(C(=O)c2cnc(/N=C/N(C)C)s2)c(F)cc1Cl', 13.6),
  ('Cc1ccc2cc(NC(=O)Cc3ccccc3)ccc2n1', 32.6),
  ('CCOC(=O)c1c(C)[nH]c(C(=O)NCc2ccccn2)c1C', 15.5);

Q: I have this compound here, Cc1cc(=O)[nH]c(/N=C(\N)Nc2ccc(SC(F)F)cc2)n1 , and I need its recorded solubility kinetic.
Ans: 2

Q: I have this compound here, CNc1ccc(/C=C2\CSc3ccccc3C2=O)cc1[N+](=O)[O-] , and I need its recorded solubility kinetic.
Ans: 3

Q: I have this compound here, Brc1c(NC2=NCCN2)ccc2nccnc12 , and I need its recorded solubility kinetic.
Ans: 11.2

* * *

conditions: buffer; pH 7.4; 200.0 µM
RECORDED METRIC: solubility kinetic

// below: answered molecules
INSERT INTO assay_data (molecule, measured_value) VALUES
  ('O=C(Nc1ccc2c(c1)CCC2)c1cnc(Cl)c(Cl)c1', '< 0.3 µg/mL'),
  ('O=S(=O)(Cc1ccccc1)Nc1ccccc1', '> 37.1 µg/mL'),
  ('O=[n+]1cc(-c2ccc(Cl)cc2)n([O-])c2c1CCC2', '> 39.4 µg/mL'),
  ('O=C(CSc1nnc(-c2ccco2)o1)Nc1ccccc1Cl', '> 50.4 µg/mL'),
  ('O=C(O)CC1SC(=Nc2ccc(O)cc2)NC1=O (stereo not given)', '> 39.9 µg/mL'),
  ('Cc1ccc(NC(=S)N2CCC(NC(=O)c3ccccc3)CC2)cc1', '8.8 µg/mL');

Q: I have this molecule here, CCNC(=O)COC(=O)Cc1ccc(Cl)cc1Cl , and I need its recorded solubility kinetic.
Ans: > 43.5 µg/mL

Q: I have this molecule here, COc1ccc(CCC(=O)NCC2CCCCC2)cc1OC , and I need its recorded solubility kinetic.
Ans: > 45.8 µg/mL

Q: I have this molecule here, CC1CCCN(C(=O)COC(=O)COc2ccc(C#N)cc2)C1 (stereo not given) , and I need its recorded solubility kinetic.
Ans: > 47.5 µg/mL

Q: I have this molecule here, COc1ccc(S(=O)(=O)Nc2noc3ccccc23)cc1OC , and I need its recorded solubility kinetic.
Ans: > 50.2 µg/mL

Q: I have this molecule here, CN1CCCC(OC(=O)c2cccc(Br)c2)C1.Cl (stereo not given) , and I need its recorded solubility kinetic.
Ans: > 50.2 µg/mL

Q: I have this molecule here, N#Cc1ccc(OCC(=O)Nc2ccncc2)cc1 , and I need its recorded solubility kinetic.
Ans: 36 µg/mL

Q: I have this molecule here, COc1ccc(C(C)(C)C)cc1NC(=O)CCNC(=O)c1ccco1 , and I need its recorded solubility kinetic.
Ans: > 51.7 µg/mL

* * *

Measured solubility kinetic accompanies every entry in the list below.
conditions: buffer; pH 7.4; 200.0 µM

// below: answered compounds
INSERT INTO assay_data (compound, measured_value) VALUES
  ('Cc1ccc(N(CN2CCCC2=O)C(=O)c2ccccc2)cc1', '> 46.3 µg/mL'),
  ('CCOC(=O)c1ccccc1NC(=O)CSc1nncn1C', '> 48.1 µg/mL'),
  ('CC(=O)NCCc1nc2ccccc2n1Cc1ccc(Cl)cc1', '> 49.2 µg/mL'),
  ('CN(CCC#N)C(=S)Nc1ccc(F)cc1', '32.8 µg/mL'),
  ('Cn1nccc1NC(=O)c1nccnc1C(=O)O', '> 37.1 µg/mL');

Q: I have this compound here, CC(=O)c1cccc(NC(=S)N2c3ccccc3CC2C)c1 (stereo not drawn) , and I need its recorded solubility kinetic.
Ans: 1.4 µg/mL

Q: I have this compound here, COc1ccccc1NC(=O)Nc1cccnc1 , and I need its recorded solubility kinetic.
Ans: 34.6 µg/mL

Q: I have this compound here, O=C(CSc1nccc(=O)[nH]1)c1cc2ccccc2o1 , and I need its recorded solubility kinetic.
Ans: > 42.9 µg/mL

Q: I have this compound here, CNC(=S)N1CCC(Cc2ccccc2)CC1 , and I need its recorded solubility kinetic.
Ans: 36.9 µg/mL
